# tested-target: organic ion transporter 2 (OCT2) (Homo sapiens)
# Sequence (O15244 1-555): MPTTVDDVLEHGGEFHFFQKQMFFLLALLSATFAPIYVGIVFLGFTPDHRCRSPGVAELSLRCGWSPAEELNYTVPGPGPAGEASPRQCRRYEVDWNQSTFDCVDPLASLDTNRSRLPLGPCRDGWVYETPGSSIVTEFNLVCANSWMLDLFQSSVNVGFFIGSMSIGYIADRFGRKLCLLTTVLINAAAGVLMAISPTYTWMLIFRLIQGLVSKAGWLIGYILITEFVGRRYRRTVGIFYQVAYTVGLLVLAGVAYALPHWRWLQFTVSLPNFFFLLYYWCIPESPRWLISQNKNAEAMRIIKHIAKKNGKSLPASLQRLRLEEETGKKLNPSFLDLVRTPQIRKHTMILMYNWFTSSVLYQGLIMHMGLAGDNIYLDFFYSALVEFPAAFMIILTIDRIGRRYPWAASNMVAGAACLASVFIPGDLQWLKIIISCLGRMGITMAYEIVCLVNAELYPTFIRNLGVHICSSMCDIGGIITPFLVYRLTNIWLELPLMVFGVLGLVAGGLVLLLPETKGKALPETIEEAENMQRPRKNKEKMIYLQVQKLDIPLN
metric-name: IC50 (µM)
Field format: number, assumed µM, no unit text.

Ask: Form field: IC50 recorded for `CCCCOc1nc(N)c2[nH]cc(Cc3ccc(CN4CCCC4)cc3)c2n1` with organic ion transporter 2 (OCT2) (Homo sapiens) (enter value)
Reply: 4.97

###

# assay-summary: pharmacokinetics and metabolism in animals
# Format: in vivo, rats and monkeys
# experimental-context: rat, monkey, in vivo; oral dosing
metric-name: Tmax

Ask: What value of measured Tmax is listed for `CCCCOc1nc(N)c2[nH]cc(Cc3ccc(CN4CCCC4)cc3)c2n1` ?
Reply: 0.8 to 2 h

###

# assay-summary: Phase 1 single oral dose pharmacokinetics in healthy adults
# Type: in vivo
# experimental-context: both sexes, human, plasma, oral, 1.25 mg, single dose 1.25 mg fasted, mean ± SD
metric-name: Cmax (ng/mL)
Numeric answer only, unit ng/mL assumed.

Ask: Consider the compound `CCCCOc1nc(N)c2[nH]cc(Cc3ccc(CN4CCCC4)cc3)c2n1` and give its measured Cmax.
Reply: 0.143

###

# assay-summary: 6-month toxicity study in Cynomolgus monkeys
# experimental-context: cynomolgus monkey, in vivo; 3.0 mg/kg qw or 4.5 mg/kg q2w; read-out: Cmax at NOAEL
# Source text: Exposure increased more than dose-proportionally at low doses. Variability in exposure was high. • In vitro plasma protein binding was between 79.6% and 94.2% in animals and humans. Volume of distribution after intravenous dosing was high. […] Main metabolic pathways were oxygenation, hydrogenation, dehydrogenation, dealkylation, acetylation, glucuronidation, and/or glutathione conjugation. • In rats, >80% of drug-related material was found in feces, 11% to 20% in bile, and <4% in urine. […]
metric-name: Cmax

Ask: So what does the record say about Cmax for `CCCCOc1nc(N)c2[nH]cc(Cc3ccc(CN4CCCC4)cc3)c2n1` ?
Reply: 2.56 to 16.4 ng/mL

###

# assay-summary: Phase 1 single oral dose pharmacokinetics in healthy adults
# Assay type: in vivo
# experimental-context: both sexes, human, plasma, oral, 0.2 mg, single dose 0.2 mg fasted, mean ± SD
# Text: This ongoing trial is a Phase 1 randomized, double-blind, placebo-controlled study in male and female healthy adult volunteers aged 18-55 years. All volunteers provided written, informed consent. […]
metric-name: Cmax (ng/mL)
Kindly provide the numeric value in ng/mL only, without the unit symbol.

Ask: Given CCCCOc1nc(N)c2[nH]cc(Cc3ccc(CN4CCCC4)cc3)c2n1 [Compound 4] , state its recorded Cmax.
Reply: 0.0344

###

# assay-summary: Phase 1 single oral dose pharmacokinetics in healthy adults
# Format: in vivo
# experimental-context: both sexes, human, plasma, oral, 0.6 mg, single dose 0.6 mg fasted, mean ± SD
metric-name: Cmax (ng/mL)
Numeric only. Scale: ng/mL

Ask: Name the reported Cmax value associated with the compound `CCCCOc1nc(N)c2[nH]cc(Cc3ccc(CN4CCCC4)cc3)c2n1`
Reply: 0.109

###

# assay-summary: Phase 1 single oral dose pharmacokinetics in healthy adults
# Type: in vivo
# experimental-context: both sexes, human, plasma, oral, 0.2 mg, single dose 0.2 mg fasted, median (range); read-out: tmax
metric-name: Tmax (min)
# output: bare number, implied unit min

Ask: Recorded Tmax of CCCCOc1nc(N)c2[nH]cc(Cc3ccc(CN4CCCC4)cc3)c2n1 [Compound 4] , please.
Reply: 30

###

# assay-summary: Phase 1 single oral dose pharmacokinetics in healthy adults
# Assay type: in vivo
# experimental-context: both sexes, human, plasma, oral, 1.25 mg, single dose 1.25 mg fasted, median (range); read-out: tmax
metric-name: Tmax (min)
# value in min; strip the unit string

Ask: What value of Tmax has been reported for the following compound? `CCCCOc1nc(N)c2[nH]cc(Cc3ccc(CN4CCCC4)cc3)c2n1`
Reply: 45

###

# assay-summary: in vitro plasma protein binding
# Type: in vitro ADME
# experimental-context: human, animals and humans
# Description: Exposure increased more than dose-proportionally at low doses. Variability in exposure was high. • In vitro plasma protein binding was between 79.6% and 94.2% in animals and humans. Volume of distribution after intravenous dosing was high. […] Main metabolic pathways were oxygenation, hydrogenation, dehydrogenation, dealkylation, acetylation, glucuronidation, and/or glutathione conjugation. • In rats, >80% of drug-related material was found in feces, 11% to 20% in bile, and <4% in urine. […]
metric-name: fraction unbound

Ask: What value of fraction unbound has been reported for the following compound? CCCCOc1nc(N)c2[nH]cc(Cc3ccc(CN4CCCC4)cc3)c2n1 [Compound 4]
Reply: 0.058 to 0.204

###

# assay-summary: 6-month toxicity study in Cynomolgus monkeys
# experimental-context: cynomolgus monkey, in vivo; 3.0 mg/kg qw or 4.5 mg/kg q2w; read-out: AUC24h at NOAEL
metric-name: AUC(0-t)

Ask: Quick one: AUC(0-t) for CCCCOc1nc(N)c2[nH]cc(Cc3ccc(CN4CCCC4)cc3)c2n1 [Compound 4] ?
Reply: 13.2 to 44.8 ng·h/mL

###

# assay-summary: pharmacokinetics and metabolism in animals
# Type: in vivo, rats and monkeys
# experimental-context: rat, monkey, in vivo
metric-name: half-life

Ask: Item under review: CCCCOc1nc(N)c2[nH]cc(Cc3ccc(CN4CCCC4)cc3)c2n1 [Compound 4] . Reported half-life?
Reply: 5 to 14 h

###

# assay-summary: pharmacokinetics in monkey
# experimental-context: in vivo, po
metric-name: bioavailability (%)
Provide the reading as a plain figure in %.

Ask: Consider the molecule shown here: `CCCCOc1nc(N)c2[nH]cc(Cc3ccc(CN4CCCC4)cc3)c2n1` What is its recorded bioavailability?
Reply: 1.5

###

# assay-summary: Phase 1 multiple dose pharmacokinetics in healthy adults
# Format: in vivo, human
# experimental-context: human, plasma, oral, 1.25 mg, 1.25 mg qw fasted; SD 591; read-out: mean AUC24h after the fourth dose
metric-name: AUC
Express your answer as a number followed by its unit.

Ask: Using the record for `CCCCOc1nc(N)c2[nH]cc(Cc3ccc(CN4CCCC4)cc3)c2n1` , report its AUC.
Reply: 1.76 ng·h/mL

###

# assay-summary: 6-month toxicity study in rats
# experimental-context: rat, in vivo; 1.0 mg/kg qw or q2w; read-out: Cmax at NOAEL
metric-name: Cmax

Ask: Requested field: Cmax. Item: `CCCCOc1nc(N)c2[nH]cc(Cc3ccc(CN4CCCC4)cc3)c2n1`
Reply: 3.32 to 7.88 ng/mL

###

# assay-summary: Phase 1 single oral dose pharmacokinetics in healthy adults
# Assay type: in vivo
# experimental-context: both sexes, human, plasma; single oral doses 0.2 to 1.8 mg; read-out: median t1/2 term, range over doses
metric-name: half-life

Ask: What does the data say about its half-life? Entry: `CCCCOc1nc(N)c2[nH]cc(Cc3ccc(CN4CCCC4)cc3)c2n1`
Reply: 5.25 to 36.2 days

###

# assay-summary: Phase 1 single oral dose pharmacokinetics in healthy adults
# Format: in vivo
# experimental-context: both sexes, human, plasma, oral, 0.6 mg, single dose 0.6 mg fasted, median (range); read-out: tmax
metric-name: Tmax (min)
All answers are understood in min, so give the number only.

Ask: Would you mind telling me what Tmax value was observed for `CCCCOc1nc(N)c2[nH]cc(Cc3ccc(CN4CCCC4)cc3)c2n1` ?
Reply: 30

###

# assay-summary: Phase 1 single oral dose pharmacokinetics in healthy adults
# Type: in vivo
# experimental-context: both sexes, human, plasma, oral, 1.25 mg, single dose 1.25 mg fed, median (range); read-out: tmax
metric-name: Tmax (min)
Your answer should be a plain number; it is taken to be in min.

Ask: Name the reported Tmax value associated with the compound `CCCCOc1nc(N)c2[nH]cc(Cc3ccc(CN4CCCC4)cc3)c2n1`
Reply: 30

###

# assay-summary: Phase 1 single oral dose pharmacokinetics in healthy adults
# Assay type: in vivo
# experimental-context: both sexes, human, plasma, oral; single dose 1.25 mg fasted; range 1.86-3.81; read-out: mean renal clearance (converted)
metric-name: CL renal (mL/min)
Only the number, expressed in mL/min, is required.

Ask: What value of CL renal has been reported for the following molecule? CCCCOc1nc(N)c2[nH]cc(Cc3ccc(CN4CCCC4)cc3)c2n1 [Compound 4]
Reply: 42.8
